tested.target: Cholinesterase (Equus caballus)
Sequence (P81908 whole entry): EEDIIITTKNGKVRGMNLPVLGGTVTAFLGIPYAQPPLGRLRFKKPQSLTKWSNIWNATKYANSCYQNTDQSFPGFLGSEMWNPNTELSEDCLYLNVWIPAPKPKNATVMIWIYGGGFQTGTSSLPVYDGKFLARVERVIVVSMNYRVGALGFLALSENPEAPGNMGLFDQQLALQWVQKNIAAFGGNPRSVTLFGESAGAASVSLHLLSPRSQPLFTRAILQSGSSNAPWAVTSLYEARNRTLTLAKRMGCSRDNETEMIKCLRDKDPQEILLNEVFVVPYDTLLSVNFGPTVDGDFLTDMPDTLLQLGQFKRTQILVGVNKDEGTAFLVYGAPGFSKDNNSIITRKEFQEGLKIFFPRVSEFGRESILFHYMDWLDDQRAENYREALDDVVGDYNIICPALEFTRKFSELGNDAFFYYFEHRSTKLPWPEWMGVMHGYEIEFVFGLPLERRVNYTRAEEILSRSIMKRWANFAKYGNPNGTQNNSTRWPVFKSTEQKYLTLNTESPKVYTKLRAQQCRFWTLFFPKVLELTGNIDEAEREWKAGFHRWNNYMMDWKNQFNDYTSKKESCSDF
assay.info: Inhibition of horse serum BuChE using butyrylthiocholine iodide as substrate preincubated for 20 mins followed by substrate addition and measured every 20 secs for 3 mins by Ellman's method
IC50 reference
Give your result in µM as a bare value.

Please review the entries below; each comes with its answer.
# compound, endpoint.name, unit.spec, result.value
rows = [
    ("COc1cc2c3c(c1OC)-c1ccccc1C[C@H]3N(C(=O)c1cc[n+](Cc3ccc(F)cc3)cc1)CC2", "IC50", "µM", 15.4),
    ("COc1cc2c3c(c1OC)-c1ccccc1CC3N(C(=O)c1cc[n+](Cc3c(F)cccc3F)cc1)CC2 (racemic)", "IC50", "µM", 0.97),
    ("COc1cc2c3c(c1OC)-c1ccccc1C[C@@H]3N(C(=O)c1cc[n+](Cc3ccccc3)cc1)CC2", "IC50", "µM", 4.9),
]

Next compound, please.
The reported IC50 of the compound "COc1cc2c3c(c1OC)-c1ccccc1C[C@@H]3N(C(=O)c1cc[n+](Cc3ccc(F)cc3)cc1)CC2" was 8.58

----------
inhibition reference
tested.target: Acetylcholinesterase (Electrophorus electricus) (UniProt O42275)
Sequence (O42275 24-633 limits assumed): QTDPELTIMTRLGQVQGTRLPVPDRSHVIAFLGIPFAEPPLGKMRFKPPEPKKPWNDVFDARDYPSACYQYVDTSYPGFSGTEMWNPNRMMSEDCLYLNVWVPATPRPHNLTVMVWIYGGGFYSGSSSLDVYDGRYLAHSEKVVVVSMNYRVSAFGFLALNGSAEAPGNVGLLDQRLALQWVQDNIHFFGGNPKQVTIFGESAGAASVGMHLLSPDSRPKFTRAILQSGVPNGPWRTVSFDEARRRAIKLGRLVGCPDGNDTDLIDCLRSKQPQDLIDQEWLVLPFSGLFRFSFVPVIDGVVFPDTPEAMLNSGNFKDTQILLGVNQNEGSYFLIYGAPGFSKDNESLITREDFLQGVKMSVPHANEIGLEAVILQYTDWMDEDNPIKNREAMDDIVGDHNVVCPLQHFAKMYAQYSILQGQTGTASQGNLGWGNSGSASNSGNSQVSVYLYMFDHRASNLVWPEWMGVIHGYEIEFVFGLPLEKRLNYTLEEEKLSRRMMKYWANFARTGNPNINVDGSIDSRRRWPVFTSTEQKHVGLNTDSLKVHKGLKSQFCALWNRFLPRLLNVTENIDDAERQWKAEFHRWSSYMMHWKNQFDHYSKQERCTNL
assay.info: Inhibition of electric eel AChE using acetylthiocholine iodide as substrate at 10 uM preincubated for 20 mins followed by substrate addition and measured every 20 secs for 3 mins by Ellman's method relative to control
assay.context: time 23.0 min
Give your result in % as a bare value.

# compound, tested.target, unit.spec, inhibition
records = [
    ("COc1cc2c3c(c1OC)-c1ccccc1CC3N(C(=O)c1ccncc1)CC2 (racemic)", "Acetylcholinesterase (Electrophorus electricus) (UniProt O42275)", "%", 5),
    ("COc1cc2c3c(c1OC)-c1ccccc1CC3N(C(=O)c1cc[n+](Cc3ccc(Cl)cc3)cc1)CC2 (racemic)", "Acetylcholinesterase (Electrophorus electricus) (UniProt O42275)", "%", 31),
    ("COc1cc2c3c(cc4ccccc4c3c1OC)NCC2", "Acetylcholinesterase (Electrophorus electricus) (UniProt O42275)", "%", 12),
    ("COc1cc2c3c(cc4ccccc4c3c1OC)N(C(=O)c1ccncc1)CC2", "Acetylcholinesterase (Electrophorus electricus) (UniProt O42275)", "%", 16),
]

Next compound, please.
The reported inhibition of the compound "COc1cc2c3c(cc4ccccc4c3c1OC)N(C(=O)c1cc[n+](Cc3ccccc3)cc1)CC2" was 69

----------
assay.info: Cytotoxicity against human MRC5 cells assessed as reduction in cell viability
Type: toxicity, cell-based
Structures can show the parent of a compound that is named as a salt.
endpoint.name: IC50 (µg/mL)
Give your result in µg/mL as a bare value.

The reported IC50 of the molecule COc1cccc2c1C(=O)c1c(O)c3c(c(O)c1C2=O)C[C@@](O)(C(=O)CO)C[C@@H]3O[C@H]1C[C@H](N)[C@H](O)[C@H](C)O1 [DOXORUBICIN HYDROCHLORIDE] was 1.54

----------
assay.info: Lipophilicity, log P of the compound in n-octanol/water by HPLC method
Format: physicochemical
endpoint.name: logP
Answer using only a numeral; do not append any unit.

Please review the entries below; each comes with its answer.
# compound, logP
data = [
    ("COc1cc2c3c(c1OC)-c1ccccc1CC3N(C(=O)c1cc[n+](Cc3ccccc3Cl)cc1)CC2.[Br-] (racemic)", 2.36),
    ("COc1cc2c3c(c1OC)-c1ccccc1C[C@H]3N(C(=O)c1cc[n+](Cc3ccccc3)cc1)CC2", 2.2),
    ("COc1cc2c3c(c1OC)-c1ccccc1CC3N(C(=O)c1cc[n+](Cc3ccc(Cl)cc3)cc1)CC2 (racemic)", 2.67),
    ("COc1cc2c3c(c1OC)-c1ccccc1C[C@@H]3N(C(=O)c1cc[n+](Cc3ccc(F)cc3)cc1)CC2", 2.3),
    ("COc1cc2c3c(c1OC)-c1ccccc1C[C@H]3N(C(=O)c1cc[n+](Cc3ccccc3Cl)cc1)CC2.[Br-]", 2.36),
    ("COc1cc2c3c(c1OC)-c1ccccc1C[C@@H]3N(C(=O)c1cc[n+](Cc3ccccc3)cc1)CC2", 2.2),
    ("COc1cc2c3c(c1OC)-c1ccccc1C[C@H]3N(C(=O)c1cc[n+](Cc3ccc(F)cc3)cc1)CC2", 2.3),
]

Next compound, please.
The reported logP of the compound COc1cc2c3c(c1OC)-c1ccccc1CC3N(C(=O)c1cc[n+](Cc3cccc(Cl)c3)cc1)CC2 (racemic) was 2.62

# credit: ChEMBL document CHEMBL5357015
